tested-on: Myosin light chain kinase, smooth muscle (Homo sapiens, UniProt Q15746)
Sequence (Q15746 whole entry): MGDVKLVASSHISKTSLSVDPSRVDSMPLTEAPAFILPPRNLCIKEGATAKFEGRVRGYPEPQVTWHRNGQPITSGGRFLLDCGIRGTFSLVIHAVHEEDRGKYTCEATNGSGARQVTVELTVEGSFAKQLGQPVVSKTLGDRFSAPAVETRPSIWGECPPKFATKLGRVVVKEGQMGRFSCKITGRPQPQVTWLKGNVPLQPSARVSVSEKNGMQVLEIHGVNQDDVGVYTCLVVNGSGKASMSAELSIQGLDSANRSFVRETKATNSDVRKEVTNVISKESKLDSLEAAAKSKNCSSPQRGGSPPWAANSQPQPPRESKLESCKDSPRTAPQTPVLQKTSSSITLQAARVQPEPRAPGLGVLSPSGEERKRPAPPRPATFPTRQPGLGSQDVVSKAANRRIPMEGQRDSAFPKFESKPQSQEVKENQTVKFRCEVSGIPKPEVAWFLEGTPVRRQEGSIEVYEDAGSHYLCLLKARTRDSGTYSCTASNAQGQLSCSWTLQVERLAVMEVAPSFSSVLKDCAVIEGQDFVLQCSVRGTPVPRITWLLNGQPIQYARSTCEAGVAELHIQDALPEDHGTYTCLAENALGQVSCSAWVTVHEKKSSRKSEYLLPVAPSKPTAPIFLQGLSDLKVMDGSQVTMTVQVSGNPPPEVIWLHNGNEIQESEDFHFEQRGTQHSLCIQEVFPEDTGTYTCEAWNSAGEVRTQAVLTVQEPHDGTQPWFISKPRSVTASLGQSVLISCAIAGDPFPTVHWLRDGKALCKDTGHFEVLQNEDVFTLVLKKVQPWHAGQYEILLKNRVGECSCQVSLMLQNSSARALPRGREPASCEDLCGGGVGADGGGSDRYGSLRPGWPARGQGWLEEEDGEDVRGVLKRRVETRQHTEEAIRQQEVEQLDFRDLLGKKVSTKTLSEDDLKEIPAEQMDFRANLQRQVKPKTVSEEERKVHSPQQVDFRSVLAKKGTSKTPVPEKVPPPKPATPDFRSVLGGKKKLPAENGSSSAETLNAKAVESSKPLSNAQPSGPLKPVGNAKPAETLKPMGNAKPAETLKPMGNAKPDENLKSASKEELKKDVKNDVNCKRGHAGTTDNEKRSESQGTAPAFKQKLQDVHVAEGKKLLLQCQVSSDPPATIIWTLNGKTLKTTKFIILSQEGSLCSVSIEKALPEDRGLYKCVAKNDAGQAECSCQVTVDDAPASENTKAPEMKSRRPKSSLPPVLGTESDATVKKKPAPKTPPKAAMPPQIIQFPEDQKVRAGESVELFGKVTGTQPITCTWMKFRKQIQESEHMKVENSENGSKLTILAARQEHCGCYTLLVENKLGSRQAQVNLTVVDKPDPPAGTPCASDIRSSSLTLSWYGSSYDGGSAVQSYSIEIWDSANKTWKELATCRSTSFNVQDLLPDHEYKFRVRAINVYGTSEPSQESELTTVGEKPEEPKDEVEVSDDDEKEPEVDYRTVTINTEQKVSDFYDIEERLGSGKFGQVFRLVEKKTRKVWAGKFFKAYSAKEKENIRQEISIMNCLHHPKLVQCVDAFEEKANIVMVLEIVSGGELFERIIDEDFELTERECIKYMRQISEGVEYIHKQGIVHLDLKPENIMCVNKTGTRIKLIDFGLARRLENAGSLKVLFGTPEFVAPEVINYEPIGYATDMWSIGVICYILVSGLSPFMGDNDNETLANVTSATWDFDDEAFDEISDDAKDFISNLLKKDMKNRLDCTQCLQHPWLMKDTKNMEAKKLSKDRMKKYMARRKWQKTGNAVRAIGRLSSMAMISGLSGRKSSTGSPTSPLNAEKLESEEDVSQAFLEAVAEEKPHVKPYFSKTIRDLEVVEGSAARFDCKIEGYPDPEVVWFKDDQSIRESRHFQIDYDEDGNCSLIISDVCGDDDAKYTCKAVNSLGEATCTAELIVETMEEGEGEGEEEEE
Activity calls are given as the source filed them.
Respond using exactly one of the listed classes: TRUE (active), FALSE (inactive)

[
  {
    "compound": "CN(c1ncccc1CNc1nc(Nc2ccc3c(c2)CC(=O)N3)ncc1C(F)(F)F)S(C)(=O)=O",
    "cat": "FALSE"
  },
  {
    "compound": "NC[C@@](O)(c1ccc(Cl)cc1)c1ccc(-c2cn[nH]c2)cc1",
    "cat": "FALSE"
  },
  {
    "compound": "CNC(=O)c1cccc(-c2ccc3c(N4CCOC[C@@H]4C)nc(N4CCOC[C@@H]4C)nc3n2)c1",
    "cat": "FALSE"
  },
  {
    "compound": "CNC(=O)c1ccc(Nc2ncc(C(F)(F)F)c(NCc3nccnc3N(C)S(C)(=O)=O)n2)cc1",
    "cat": "FALSE"
  },
  {
    "compound": "COc1cc(F)c(F)c(Nc2ccc(I)cc2F)c1NS(=O)(=O)C1(C[C@H](O)CO)CC1",
    "cat": "FALSE"
  },
  {
    "compound": "C#Cc1cccc(Nc2ncnc3cc4c(cc23)OCCOCCOCCO4)c1",
    "cat": "FALSE"
  },
  {
    "compound": "CCc1nc(C(N)=O)c(Nc2ccc(N3CCC(N4CCN(C)CC4)CC3)c(OC)c2)nc1NC1CCOCC1",
    "cat": "TRUE"
  },
  {
    "compound": "C[C@]1(O)C[C@@H](c2nc(-c3ccc4ccc(-c5ccccc5)nc4c3)c3c(N)nccn32)C1",
    "cat": "FALSE"
  },
  {
    "compound": "Cc1cc(Nc2nc(N[C@@H](C)c3ncc(F)cn3)ncc2Cl)n[nH]1",
    "cat": "FALSE"
  },
  {
    "compound": "S=C(NCc1ccc2c(c1)OCO2)N1CCN(c2ncnc3c2oc2ccccc23)CC1",
    "cat": "FALSE"
  }
]

What is the recorded call for this compound in the test? N#CCNC(=O)c1ccc(-c2ccnc(Nc3ccc(N4CCOCC4)cc3)n2)cc1
FALSE

Further, for C=CC(=O)Nc1cccc(Nc2nc(Nc3ccc(N4CCN(C(C)=O)CC4)cc3OC)ncc2C(F)(F)F)c1 ?
FALSE

Please give the result for Cn1c(=O)n(-c2ccc(C(C)(C)C#N)cc2)c2c3cc(-c4cnc5ccccc5c4)ccc3ncc21 too.
FALSE

Please answer likewise for CCOc1ccn(-c2ccc(F)cc2)c(=O)c1C(=O)Nc1ccc(Oc2ccnc(N)c2Cl)c(F)c1
FALSE

Entry COc1ccc(-c2ccc3ncc4c(c3c2)n(-c2ccc(N3CCNCC3)c(C(F)(F)F)c2)c(=O)n4C)cn1 [BGT-226 FREE BASE] please
FALSE
